Where these numbers come from: ChEMBL document CHEMBL4028801

# TGT: ATP-binding cassette sub-family C member 3 (Homo sapiens)
# Sequence (O15438 whole entry): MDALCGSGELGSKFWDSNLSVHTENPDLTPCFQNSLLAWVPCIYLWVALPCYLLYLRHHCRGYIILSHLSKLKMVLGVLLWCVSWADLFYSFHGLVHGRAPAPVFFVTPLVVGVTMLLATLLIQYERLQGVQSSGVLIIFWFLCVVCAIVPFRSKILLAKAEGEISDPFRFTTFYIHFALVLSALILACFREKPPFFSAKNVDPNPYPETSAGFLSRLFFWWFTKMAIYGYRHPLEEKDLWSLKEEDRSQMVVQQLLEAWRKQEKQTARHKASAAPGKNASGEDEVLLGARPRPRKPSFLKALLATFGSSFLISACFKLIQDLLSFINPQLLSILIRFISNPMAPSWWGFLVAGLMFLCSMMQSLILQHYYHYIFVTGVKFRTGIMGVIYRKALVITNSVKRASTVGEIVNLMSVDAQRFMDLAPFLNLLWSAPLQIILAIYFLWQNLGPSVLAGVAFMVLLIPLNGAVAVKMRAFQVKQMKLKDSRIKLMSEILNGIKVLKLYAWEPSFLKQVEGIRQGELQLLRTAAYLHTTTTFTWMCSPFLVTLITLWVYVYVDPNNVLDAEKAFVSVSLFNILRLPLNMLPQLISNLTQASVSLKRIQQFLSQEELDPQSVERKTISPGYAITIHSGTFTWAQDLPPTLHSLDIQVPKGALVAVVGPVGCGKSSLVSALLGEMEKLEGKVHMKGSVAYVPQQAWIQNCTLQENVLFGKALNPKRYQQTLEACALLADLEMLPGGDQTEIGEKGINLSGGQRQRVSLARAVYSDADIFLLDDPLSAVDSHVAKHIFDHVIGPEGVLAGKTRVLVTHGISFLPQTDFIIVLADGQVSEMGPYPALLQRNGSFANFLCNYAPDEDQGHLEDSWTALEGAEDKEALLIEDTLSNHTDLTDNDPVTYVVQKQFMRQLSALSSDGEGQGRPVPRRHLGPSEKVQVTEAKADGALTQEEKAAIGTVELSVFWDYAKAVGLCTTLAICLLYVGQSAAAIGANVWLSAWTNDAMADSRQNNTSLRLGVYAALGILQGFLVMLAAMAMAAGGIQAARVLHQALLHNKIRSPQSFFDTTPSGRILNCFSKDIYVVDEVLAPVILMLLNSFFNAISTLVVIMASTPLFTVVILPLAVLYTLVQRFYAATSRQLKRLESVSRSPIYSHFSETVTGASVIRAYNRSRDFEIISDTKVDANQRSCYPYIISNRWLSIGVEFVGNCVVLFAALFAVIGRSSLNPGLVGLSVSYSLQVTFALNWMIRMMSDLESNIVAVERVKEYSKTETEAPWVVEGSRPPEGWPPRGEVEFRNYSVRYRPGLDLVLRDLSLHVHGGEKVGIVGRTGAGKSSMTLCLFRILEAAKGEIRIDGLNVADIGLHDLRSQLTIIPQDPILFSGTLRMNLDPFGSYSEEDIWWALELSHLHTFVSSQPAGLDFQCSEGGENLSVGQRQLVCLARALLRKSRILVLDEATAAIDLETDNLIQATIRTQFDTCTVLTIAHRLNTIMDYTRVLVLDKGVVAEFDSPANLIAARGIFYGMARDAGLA
# MEASUREMENT PROTOCOL: Inhibition of human MRP3 overexpressed in Sf9 insect cell membrane vesicles assessed as uptake of [3H]-estradiol-17beta-D-glucuronide in presence of ATP and GSH measured after 10 mins by membrane vesicle transport assay
MEASURED ENDPOINT: IC50

[Q] Entry under review: CCCCC1=NC2(CCCC2)C(=O)N1Cc1ccc(-c2ccccc2-c2nnn[nH]2)cc1 [IRBESARTAN] . Reported IC50?
[A] 21.1 µM

[Q] Entry under review: COc1ccc([C@@H]2Sc3ccccc3N(CCN(C)C)C(=O)[C@@H]2OC(C)=O)cc1 [DILTIAZEM] . Reported IC50?
[A] > 133 µM

[Q] Entry under review: `Cl.OCCN1CCN(CCCN2c3ccccc3Sc3ccc(C(F)(F)F)cc32)CC1` . Reported IC50?
[A] > 133 µM

[Q] Entry under review: CN(C)C(=O)CCSC(SCCC(=O)O)c1cccc(/C=C/c2ccc3ccc(Cl)cc3n2)c1 (centres undefined) [MK-571] . Reported IC50?
[A] 9.3 µM

[Q] Entry under review: C[C@H](N[C@@H](CCc1ccccc1)C(=O)O)C(=O)N1CCC[C@H]1C(=O)O [ENALAPRILAT ANHYDROUS] . Reported IC50?
[A] > 133 µM

[Q] Entry under review: Cc1ncc([N+](=O)[O-])n1CCO [METRONIDAZOLE] . Reported IC50?
[A] > 133 µM

[Q] Entry under review: `O=C(CC(=O)C(F)(F)F)c1cccs1` . Reported IC50?
[A] > 133 µM

[Q] Entry under review: OCC(CO)N[C@H]1C[C@](O)(CO)[C@@H](O)[C@H](O)[C@H]1O [VOGLIBOSE] . Reported IC50?
[A] > 133 µM

[Q] Entry under review: COC(=O)[C@H](c1ccccc1Cl)N1CCc2sccc2C1 [CLOPIDOGREL BISULFATE] . Reported IC50?
[A] > 133 µM

----------
For each record, write down the corresponding AUC at 24 h.
# MEASUREMENT PROTOCOL: AUC in human at 10 mg, po after 24 hrs
# Format: ADME, organism-based
# Set-up: time < 24 hr, dose 10 mg, route oral
# MEASUREMENT PARAMETERS: in vivo
The number alone won't do; follow it with the unit.

[Q] Entry under review: `O=C1[C@H](CC[C@H](O)c2ccc(F)cc2)[C@@H](c2ccc(O)cc2)N1c1ccc(F)cc1` . Reported AUC at 24 h?
[A] 3.2 µM·h

[Q] Entry under review: `COc1ccc(CCN2CCC(Nc3nc4ccccc4n3Cc3ccc(F)cc3)CC2)cc1` . Reported AUC at 24 h?
[A] 0.024 µM·h

----------
For each record, write down the corresponding pIC50.
# TGT: ATP-binding cassette sub-family C member 4 (Homo sapiens)
# Sequence (O15439 whole entry): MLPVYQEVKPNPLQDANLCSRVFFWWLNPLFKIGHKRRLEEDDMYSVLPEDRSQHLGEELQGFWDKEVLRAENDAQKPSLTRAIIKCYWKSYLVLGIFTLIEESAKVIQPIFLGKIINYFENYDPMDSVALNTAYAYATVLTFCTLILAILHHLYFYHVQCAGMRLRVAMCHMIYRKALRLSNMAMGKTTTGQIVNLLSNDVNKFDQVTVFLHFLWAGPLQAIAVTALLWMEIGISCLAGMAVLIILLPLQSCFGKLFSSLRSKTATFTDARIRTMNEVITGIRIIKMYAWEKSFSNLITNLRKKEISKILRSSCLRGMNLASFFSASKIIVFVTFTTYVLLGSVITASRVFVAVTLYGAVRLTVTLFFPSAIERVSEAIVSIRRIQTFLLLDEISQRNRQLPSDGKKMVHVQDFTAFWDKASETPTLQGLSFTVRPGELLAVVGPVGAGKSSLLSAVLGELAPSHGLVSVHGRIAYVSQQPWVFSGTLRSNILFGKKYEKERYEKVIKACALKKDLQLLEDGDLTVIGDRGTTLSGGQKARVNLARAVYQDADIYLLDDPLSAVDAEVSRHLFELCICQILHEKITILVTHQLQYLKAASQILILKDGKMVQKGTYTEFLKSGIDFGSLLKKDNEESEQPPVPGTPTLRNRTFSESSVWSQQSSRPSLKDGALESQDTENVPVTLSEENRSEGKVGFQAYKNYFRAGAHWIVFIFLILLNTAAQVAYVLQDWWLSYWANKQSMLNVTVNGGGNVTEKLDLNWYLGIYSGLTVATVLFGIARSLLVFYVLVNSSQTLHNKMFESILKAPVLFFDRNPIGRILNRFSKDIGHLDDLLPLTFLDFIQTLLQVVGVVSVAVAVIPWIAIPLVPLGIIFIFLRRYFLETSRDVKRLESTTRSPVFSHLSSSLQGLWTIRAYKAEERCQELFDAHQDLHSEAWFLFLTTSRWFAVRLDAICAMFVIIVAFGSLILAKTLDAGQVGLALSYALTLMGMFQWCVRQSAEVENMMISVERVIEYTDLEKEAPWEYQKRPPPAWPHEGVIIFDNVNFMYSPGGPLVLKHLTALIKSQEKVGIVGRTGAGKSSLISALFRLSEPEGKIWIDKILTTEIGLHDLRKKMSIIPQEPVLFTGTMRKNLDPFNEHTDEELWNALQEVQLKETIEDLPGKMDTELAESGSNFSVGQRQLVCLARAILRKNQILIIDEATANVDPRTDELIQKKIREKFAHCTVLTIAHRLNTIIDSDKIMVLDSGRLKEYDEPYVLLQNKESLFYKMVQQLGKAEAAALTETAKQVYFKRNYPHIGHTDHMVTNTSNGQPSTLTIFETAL
# MEASUREMENT PROTOCOL: Inhibition of human MRP4 overexpressed in Sf9 cell membrane vesicles assessed as uptake of [3H]-estradiol-17beta-D-glucuronide in presence of ATP and GSH measured after 20 mins by membrane vesicle transport assay
pIC50: −log10 of the molar value.

[Q] Entry under review: CCCCCCCCCC(=O)N[C@@H](Cc1c[nH]c2ccccc12)C(=O)N[C@H](CC(N)=O)C(=O)N[C@@H](CC(=O)O)C(=O)N[C@@H]1C(=O)NCC(=O)N[C@@H](CCCN)C(=O)N[C@@H](CC(=O)O)C(=O)N[C@H](C)C(=O)N[C@@H](CC(=O)O)C(=O)NCC(=O)N[C@H](CO)C(=O)N[C@@H]([C@H](C)CC(=O)O)C(=O)N[C@@H](CC(=O)c2ccccc2N)C(=O)O[C@@H]1C [DAPTOMYCIN] . Reported pIC50?
[A] < 3.88

[Q] Entry under review: C[C@]12CC[C@H]3[C@@H](CCC4=CC(=O)CC[C@@]43C)[C@@H]1CC[C@@H]2O [TESTOSTERONE] . Reported pIC50?
[A] < 3.88
